system: P388R cells; test: Potentiation of adriamycin activity and cell growth in P388 resistant cells (Table II); format: cell-based, murine; details: Mus musculus, P388; test compound at 5 μM; read-out: % of Control Cell Growth
quantity_kind: activity at 5 µM (%)
Number only, in %; omit the unit.

Request: Please give the measured activity at 5 µM for this compound: CCCSc1ccccc1N1CCN(CCCCCn2c(=O)c3cc(OC)c(OC)cc3n(C)c2=O)CC1
Response: 33

Request: Please give the measured activity at 5 µM for this compound: CCCSc1ccccc1N1CCN(CCCCn2c(=O)c3ccccc3n(C)c2=O)CC1
Response: 100

Request: Please give the measured activity at 5 µM for this compound: CCCSc1ccccc1N1CCN(CCCCn2c(=O)[nH]c3ccc(C)cc3c2=O)CC1.Cl [Example 10, monohydrochloride]
Response: 92

Request: Please give the measured activity at 5 µM for this compound: CCCSc1ccccc1N1CCN(CCCCn2c(=O)[nH]c3cc(OC)c(OC)cc3c2=O)CC1
Response: 100
